For each entry below, report its IC50 value.
- TARGET_OR_SYSTEM: VIM-2 (Escherichia coli, UniProt Q5U7L7)
- Construct: made in house
- ASSAY_COMMENT: biochemical
- ASSAY_CONDITIONS: enethiols 6 assayed as sodium salts; 10 min incubation; read-out: IC50 VIM-2 (converted)

Asked: Report IC50 for `CN1CCN(NC(=O)CN2C(=O)/C(=C/c3cc(Cl)ccc3Cl)SC2=S)CC1` tested on VIM-2 (Escherichia coli, UniProt Q5U7L7).
Given back: > 50 µM

Asked: Report IC50 for `CN1CCN(NC(=O)CN2C(=O)/C(=C/c3ccccc3)SC2=S)CC1` tested on VIM-2 (Escherichia coli, UniProt Q5U7L7).
Given back: 16.4 µM

Asked: Report IC50 for `CN1CCN(NC(=O)CN2C(=O)/C(=C/c3csc4ccccc34)SC2=S)CC1` tested on VIM-2 (Escherichia coli, UniProt Q5U7L7).
Given back: 41.8 µM

Asked: Report IC50 for `O=C(O)CN1C(=O)/C(=C/c2cccc(Cl)c2Cl)SC1=S` tested on VIM-2 (Escherichia coli, UniProt Q5U7L7).
Given back: 7.6 µM

Asked: Report IC50 for `O=C(O)/C(S)=C/c1csc2ccccc12` tested on VIM-2 (Escherichia coli, UniProt Q5U7L7).
Given back: 0.5 µM

Asked: Report IC50 for `CN1CCN(NC(=O)CN2C(=O)/C(=C/c3cccc(Cl)c3Cl)SC2=S)CC1` tested on VIM-2 (Escherichia coli, UniProt Q5U7L7).
Given back: 39.5 µM

Asked: Report IC50 for `O=C(O)CN1C(=O)/C(=C/c2ccccc2F)SC1=S` tested on VIM-2 (Escherichia coli, UniProt Q5U7L7).
Given back: 17.6 µM

Asked: Report IC50 for `O=C(O)CN1C(=O)/C(=C/c2csc3ccccc23)SC1=S` tested on VIM-2 (Escherichia coli, UniProt Q5U7L7).
Given back: 36.9 µM

Asked: Report IC50 for `O=C(O)CN1C(=O)/C(=C/c2ccccc2Cl)SC1=S` tested on VIM-2 (Escherichia coli, UniProt Q5U7L7).
Given back: 6.7 µM

Asked: Report IC50 for `CN1CCN(NC(=O)CN2C(=O)/C(=C/c3ccccc3I)SC2=S)CC1` tested on VIM-2 (Escherichia coli, UniProt Q5U7L7).
Given back: 37.6 µM

Asked: Report IC50 for `Cc1ccc(/C=C(\S)C(=O)O)cc1` tested on VIM-2 (Escherichia coli, UniProt Q5U7L7).
Given back: 0.4 µM

Asked: Report IC50 for `CN1CCN(NC(=O)CN2C(=O)/C(=C/c3ccccc3Br)SC2=S)CC1` tested on VIM-2 (Escherichia coli, UniProt Q5U7L7).
Given back: 11.4 µM

Asked: Report IC50 for `O=C(O)/C(S)=C/c1cccc(Cl)c1Cl` tested on VIM-2 (Escherichia coli, UniProt Q5U7L7).
Given back: 1.3 µM

Asked: Report IC50 for `Cc1ccc(/C=C2\SC(=S)N(CC(=O)NN3CCN(C)CC3)C2=O)cc1` tested on VIM-2 (Escherichia coli, UniProt Q5U7L7).
Given back: > 50 µM

Asked: Report IC50 for `O=C(O)/C(S)=C/c1c(F)cccc1F` tested on VIM-2 (Escherichia coli, UniProt Q5U7L7).
Given back: 0.2 µM

Asked: Report IC50 for `COc1ccc(/C=C2\SC(=S)N(CC(=O)NN3CCN(C)CC3)C2=O)cc1` tested on VIM-2 (Escherichia coli, UniProt Q5U7L7).
Given back: > 50 µM

Asked: Report IC50 for `O=C(O)CN1C(=O)/C(=C/c2cc(Cl)ccc2Cl)SC1=S` tested on VIM-2 (Escherichia coli, UniProt Q5U7L7).
Given back: > 50 µM

Asked: Report IC50 for `O=C(O)/C(S)=C/c1ccc(Br)cc1` tested on VIM-2 (Escherichia coli, UniProt Q5U7L7).
Given back: 9.4 µM

Asked: Report IC50 for `O=C(O)CN1C(=O)/C(=C/c2ccc(Br)cc2)SC1=S` tested on VIM-2 (Escherichia coli, UniProt Q5U7L7).
Given back: > 50 µM

Asked: Report IC50 for `CN1CCN(NC(=O)CN2C(=O)/C(=C/c3ccccc3F)SC2=S)CC1` tested on VIM-2 (Escherichia coli, UniProt Q5U7L7).
Given back: 6.2 µM
